target: human ether-à-go-go-related gene (hERG) potassium channel (human); experiment: primary screen, population patch clamp on CHO cells stably expressing hERG; higher = less effect of the substance;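 note: peak tail current of the secondary pulse compared with the same well before compound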
Out of some 310,000 compounds screened, about 14,000 (4.5%) showed an effect of 50% or more. The effect is printed as a negative number. The list comes from a sample in which strong results are over-represented; it also holds close analogues and randomly drawn compounds.
Given measured hERG current change (%, negative = inhibition) at 10uM, output met if it is greater than or equal to 10% and not met if not.

| compound | category |
| --- | --- |
| CCOC(=O)CSc1nnc2n1C(C)(C)Cc1ccccc1-2 | not met |
| O=C(CSc1ccc(F)cc1)N1CCOCC1 | met |
| CCOC(=O)C1=C(C)NC(=O)C(C(N)=O)C12CCCCC2 (centres unmarked) | met |
| Cc1oc2c(C)c3oc(=O)c(CCC(=O)NCCCn4ccnc4)c(C)c3cc2c1C | not met |
| Cc1coc2cc3oc(=O)c(CCC(=O)NCCCn4ccnc4)c(C)c3cc12 | not met |

----------
hERG current change (%, negative = inhibition) at 10uM overview
biological target: human ether-à-go-go-related gene (hERG) potassium channel (human, UniProt Q12809); assay: primary screen, population patch clamp on CHO cells stably expressing hERG; higher = less effect of the substance;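 note: peak tail current of the secondary pulse compared with the same well before compound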
Sequence (Q12809 whole entry, looked up): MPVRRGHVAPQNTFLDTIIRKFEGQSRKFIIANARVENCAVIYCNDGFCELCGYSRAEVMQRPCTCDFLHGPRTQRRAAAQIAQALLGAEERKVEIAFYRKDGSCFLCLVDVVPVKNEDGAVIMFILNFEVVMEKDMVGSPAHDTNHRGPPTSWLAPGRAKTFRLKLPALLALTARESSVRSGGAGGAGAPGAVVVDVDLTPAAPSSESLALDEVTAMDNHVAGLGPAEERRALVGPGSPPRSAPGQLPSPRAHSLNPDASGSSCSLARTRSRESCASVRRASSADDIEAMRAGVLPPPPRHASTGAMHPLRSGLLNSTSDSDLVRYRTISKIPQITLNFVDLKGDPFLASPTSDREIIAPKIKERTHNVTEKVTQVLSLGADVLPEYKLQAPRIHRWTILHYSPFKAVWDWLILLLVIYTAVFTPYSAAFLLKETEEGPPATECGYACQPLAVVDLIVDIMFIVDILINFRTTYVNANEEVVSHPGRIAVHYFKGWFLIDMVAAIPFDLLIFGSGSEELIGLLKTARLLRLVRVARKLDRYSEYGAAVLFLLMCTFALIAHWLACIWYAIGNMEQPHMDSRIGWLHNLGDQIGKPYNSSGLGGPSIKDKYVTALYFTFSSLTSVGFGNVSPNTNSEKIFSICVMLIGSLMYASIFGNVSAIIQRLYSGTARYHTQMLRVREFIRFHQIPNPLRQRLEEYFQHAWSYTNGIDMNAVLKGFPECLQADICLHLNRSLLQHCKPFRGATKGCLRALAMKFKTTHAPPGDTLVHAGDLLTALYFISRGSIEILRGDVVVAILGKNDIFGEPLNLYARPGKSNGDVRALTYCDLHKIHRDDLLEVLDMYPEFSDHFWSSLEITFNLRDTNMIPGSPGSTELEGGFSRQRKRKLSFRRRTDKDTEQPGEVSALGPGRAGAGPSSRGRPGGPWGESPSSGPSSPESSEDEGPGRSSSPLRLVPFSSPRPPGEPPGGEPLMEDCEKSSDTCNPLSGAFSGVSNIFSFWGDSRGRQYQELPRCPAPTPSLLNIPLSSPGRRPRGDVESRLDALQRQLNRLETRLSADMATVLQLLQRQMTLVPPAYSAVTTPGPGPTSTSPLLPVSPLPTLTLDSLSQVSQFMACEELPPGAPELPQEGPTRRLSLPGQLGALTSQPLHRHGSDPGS
The campaign covered roughly 310,000 compounds. About 14,000 (4.5%) showed an effect of 50% or more. The effect is printed as a negative number. This is one part of a sample in which strong results are shown more often than they occur.
reported.metric: hERG current change (%, negative = inhibition) at 10uM (%)

| molecule | subject.of.test | value.observed |
| --- | --- | --- |
| CCOC(=O)c1csc(NC(=O)c2ccc(OCC)cc2)n1 | human ether-à-go-go-related gene (hERG) potassium channel (human, UniProt Q12809) | -14.9 |
| CSc1cc(C)[nH]c(=O)n1 | human ether-à-go-go-related gene (hERG) potassium channel (human, UniProt Q12809) | 7.05 |
| COc1ccc2[nH]c(=O)c(CN(CCc3ccccc3)Cc3nnnn3CC3CCCO3)cc2c1 (stereo not shown) | human ether-à-go-go-related gene (hERG) potassium channel (human, UniProt Q12809) | -53.4 |
| COCCn1nnnc1CN(CCc1ccccc1)Cc1cc2ccc(C)cc2[nH]c1=O | human ether-à-go-go-related gene (hERG) potassium channel (human, UniProt Q12809) | -57.2 |
| CC(=O)C1=C(c2ccccc2)NC(=O)NC1c1ccc(O)c(Cl)c1 (stereo not shown) | human ether-à-go-go-related gene (hERG) potassium channel (human, UniProt Q12809) | 17.6 |
| O=c1[nH]c([N+](=O)[O-])nn1C(c1ccccc1)c1ccccc1 | human ether-à-go-go-related gene (hERG) potassium channel (human, UniProt Q12809) | -13.7 |
| CCc1ccc(-c2nc3ccc(Br)cc3c(C(=O)O)c2C)s1 | human ether-à-go-go-related gene (hERG) potassium channel (human, UniProt Q12809) | 19.1 |
| CCN(CC)S(=O)(=O)c1cccc(-c2nnc(SCc3nc4ccccc4s3)o2)c1 | human ether-à-go-go-related gene (hERG) potassium channel (human, UniProt Q12809) | -3.82 |
| COc1ccc(S(=O)(=O)NCCSCc2ccccc2C)cc1Br | human ether-à-go-go-related gene (hERG) potassium channel (human, UniProt Q12809) | -1.29 |
| CC(=O)/C(C(=N)N1CCN(C(c2ccccc2)c2ccccc2)CC1)=C(\C)O | human ether-à-go-go-related gene (hERG) potassium channel (human, UniProt Q12809) | 8.3 |
